Where do the numbers come from? From patent US9637451B2.

# TESTED_SYSTEM: human MT1 receptor (Homo sapiens, UniProt P48039)
# Construct: expressed in transfected cells
# Sequence (P48039 whole entry): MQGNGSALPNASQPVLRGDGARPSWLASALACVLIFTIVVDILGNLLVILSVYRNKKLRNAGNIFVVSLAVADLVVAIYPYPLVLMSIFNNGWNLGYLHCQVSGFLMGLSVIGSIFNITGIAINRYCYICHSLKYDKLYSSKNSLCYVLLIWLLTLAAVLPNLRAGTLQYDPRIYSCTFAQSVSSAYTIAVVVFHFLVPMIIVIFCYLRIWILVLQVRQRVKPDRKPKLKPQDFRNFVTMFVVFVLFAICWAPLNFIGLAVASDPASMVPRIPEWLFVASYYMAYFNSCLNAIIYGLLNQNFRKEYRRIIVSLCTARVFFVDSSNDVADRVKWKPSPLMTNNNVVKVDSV
# ASSAY_DETAILS: Activation of human MT1 receptor in receptor-expressing cells, intracellular Ca2+ by FLIPR
# Assay type: cell-based
# MEASUREMENT_CONTEXT: maximum reaction by ramelteon taken as 100%
ASSAY_METRIC: Emax (%)

{"SMILES_REPR": "CC(=O)NCCc1c[nH]c2ccc(OCCOc3nccc(C(F)(F)F)n3)cc12", "OUTPUT_UNIT": "%", "Emax": 101}
{"SMILES_REPR": "CC(=O)NCCc1c[nH]c2ccc(OCCOc3cncc(F)c3)cc12", "OUTPUT_UNIT": "%", "Emax": 94}
{"SMILES_REPR": "CCC(=O)NCCc1c[nH]c2ccc(OCCOc3ccn(C)n3)cc12", "OUTPUT_UNIT": "%", "Emax": 93}
{"SMILES_REPR": "CNC(=O)NCCc1c(C)[nH]c2ccc(OCCn3ccc(C)n3)cc12", "OUTPUT_UNIT": "%", "Emax": 106}
{"SMILES_REPR": "CC(=O)NCCc1c[nH]c2ccc(OCCOc3ccnc(Cl)c3)cc12", "OUTPUT_UNIT": "%", "Emax": 95}
{"SMILES_REPR": "CNC(=O)NCCc1c(C)[nH]c2ccc(OCCOc3cnc(OC)c(F)c3)cc12", "OUTPUT_UNIT": "%", "Emax": 92}
{"SMILES_REPR": "CC(=O)NCCc1c(C)[nH]c2ccc(OCCn3ccc(C)n3)cc12", "OUTPUT_UNIT": "%", "Emax": 100}
{"SMILES_REPR": "CNC(=O)NCCc1c[nH]c2ccc(OCCOc3cccc(OC)n3)cc12", "OUTPUT_UNIT": "%", "Emax": 112}
{"SMILES_REPR": "COC(=O)NCCOc1ccc2[nH]c(C)c(CCNC(C)=O)c2c1", "OUTPUT_UNIT": "%", "Emax": 84}
{"SMILES_REPR": "CC(=O)NCCc1c[nH]c2cc(F)c(OCCn3cc(Cl)cn3)cc12", "OUTPUT_UNIT": "%", "Emax": 99}
{"SMILES_REPR": "CNC(=O)NCCc1c[nH]c2ccc(OCCOc3cncc(Br)c3)cc12", "OUTPUT_UNIT": "%", "Emax": 89}

###

# TESTED_SYSTEM: human MT1 receptor (Homo sapiens, UniProt P48039)
# Construct: expressed in transfected cells
# ASSAY_DETAILS: Activation of human MT1 receptor in receptor-expressing cells, intracellular Ca2+ by FLIPR
# Assay type: cell-based
# MEASUREMENT_CONTEXT: maximum reaction by ramelteon taken as 100%
ASSAY_METRIC: Emax (%)

{"COMPOUND": "CC(=O)NCCc1c[nH]c2ccc(OCCOc3ccccn3)cc12 [Example 64]", "Emax / %": 102}
{"COMPOUND": "CNC(=O)NCCc1c[nH]c2ccc(OCCOc3cccc(C)n3)cc12 [Example 58]", "Emax / %": 99}
{"COMPOUND": "CC(=O)NCCc1c(C)[nH]c2cc(F)c(OCCOc3ccn(C)n3)cc12 [Example 13]", "Emax / %": 105}
{"COMPOUND": "CNC(=O)NCCc1c(C)[nH]c2ccc(OCCOc3ccnc(C)c3)cc12 [Example 9]", "Emax / %": 84}

###

# TESTED_SYSTEM: human MT2 receptor (Homo sapiens, UniProt P49286)
# Sequence (P49286 1-362): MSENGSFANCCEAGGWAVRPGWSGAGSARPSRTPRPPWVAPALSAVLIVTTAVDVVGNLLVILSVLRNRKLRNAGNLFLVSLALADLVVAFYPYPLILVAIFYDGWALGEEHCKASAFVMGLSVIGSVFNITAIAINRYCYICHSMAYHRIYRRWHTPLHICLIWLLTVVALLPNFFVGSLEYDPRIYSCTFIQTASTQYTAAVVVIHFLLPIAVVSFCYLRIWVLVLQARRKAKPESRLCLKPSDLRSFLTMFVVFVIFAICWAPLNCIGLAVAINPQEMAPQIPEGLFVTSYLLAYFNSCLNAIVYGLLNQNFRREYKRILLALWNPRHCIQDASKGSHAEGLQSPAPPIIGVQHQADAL
# ASSAY_DETAILS: Activation of human MT2 receptor in receptor-expressing cells, intracellular Ca2+ by FLIPR
# MEASUREMENT_CONTEXT: HEK293 cells stably expressing human MT2 and Gq/i chimeric G protein; Ca2+ FLIPR
pEC50: −log10 of the molar value.
ASSAY_METRIC: pEC50

{"SMILES_REPR": "CC(=O)NCCc1c(C)[nH]c2cc(F)c(OCCn3ccc(C)n3)cc12", "pEC50": 8.06}

a: CCC(=O)NCCc1c[nH]c2cc(F)c(OCCOc3ccn(C)n3)cc12
b: COc1ccc(OCCOc2cc3c(CCNC(C)=O)c[nH]c3cc2F)cn1
c: CC(=O)NCCc1c[nH]c2ccc(OCCOc3ccccn3)cc12
INPUT: Please produce an ascending ranking of these molecules based on pEC50. List labels; respect the requested ordering.
OUTPUT: b, a, c
(b: 7.46, a: 8.15, c: 8.68)

###

# TESTED_SYSTEM: human MT1 receptor (Homo sapiens, UniProt P48039)
# ASSAY_DETAILS: Activation of human MT1 receptor in receptor-expressing cells, intracellular Ca2+ by FLIPR
# MEASUREMENT_CONTEXT: HEK293EBNA1 cells stably expressing human MT1 and Gq/i chimeric G protein; Ca2+ FLIPR
pEC50: −log10 of the molar value.
ASSAY_METRIC: pEC50

{"MOLECULE": "CCCc1cccc(OCCOc2ccc3[nH]cc(CCNC(C)=O)c3c2)n1 [Example 61]", "NUMERIC_VALUE": 8.16}
{"MOLECULE": "CNC(=O)NCCc1c[nH]c2cc(F)c(OCCc3csc(C)n3)cc12 [Example 26]", "NUMERIC_VALUE": 8.06}
{"MOLECULE": "CNC(=O)NCCc1c(C)[nH]c2ccc(OCCOc3cnc(OC)c(F)c3)cc12 [Example 48]", "NUMERIC_VALUE": 8.08}
{"MOLECULE": "CC(=O)NCCc1c(C)[nH]c2ccc(OCCn3ccc(C)n3)cc12 [Example 29]", "NUMERIC_VALUE": 8.00}
{"MOLECULE": "CCc1ccn(CCOc2cc3c(CCNC(C)=O)c[nH]c3cc2F)n1 [Example 27]", "NUMERIC_VALUE": 8.06}

###

# TESTED_SYSTEM: human MT2 receptor (Homo sapiens)
# Sequence (P49286 1-362): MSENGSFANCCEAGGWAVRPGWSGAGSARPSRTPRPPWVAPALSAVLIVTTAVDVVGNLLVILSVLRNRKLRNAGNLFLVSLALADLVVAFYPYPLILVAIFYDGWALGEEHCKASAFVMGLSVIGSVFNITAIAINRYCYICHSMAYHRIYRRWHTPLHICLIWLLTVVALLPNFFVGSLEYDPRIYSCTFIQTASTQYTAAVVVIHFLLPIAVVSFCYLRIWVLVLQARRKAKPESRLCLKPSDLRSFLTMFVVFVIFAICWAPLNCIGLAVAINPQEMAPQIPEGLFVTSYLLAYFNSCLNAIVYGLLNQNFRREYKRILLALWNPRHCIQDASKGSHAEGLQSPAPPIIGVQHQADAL
# ASSAY_DETAILS: Activation of human MT2 receptor in receptor-expressing cells, intracellular Ca2+ by FLIPR
# MEASUREMENT_CONTEXT: HEK293 cells stably expressing human MT2 and Gq/i chimeric G protein; Ca2+ FLIPR
ASSAY_METRIC: EC50 (nM)

Previously resolved entries follow.
{"SMILES_REPR": "CCOC(=O)NCCOc1ccc2[nH]c(C)c(CCNC(C)=O)c2c1", "EC50 / nM": 18}
{"SMILES_REPR": "COC(=O)NCCOc1cc2c(CCNC(C)=O)c(C)[nH]c2cc1F", "EC50 / nM": 17}
{"SMILES_REPR": "CC(=O)NCCc1c[nH]c2ccc(OCCOc3cccc(C4CC4)n3)cc12", "EC50 / nM": 9.2}
{"SMILES_REPR": "CC(=O)NCCc1c[nH]c2ccc(OCCOc3ccon3)cc12", "EC50 / nM": 9}
{"SMILES_REPR": "CC(=O)NC[C@H](C)c1c[nH]c2cc(F)c(OCCOc3ccn(C)n3)cc12", "EC50 / nM": 7.1}

1: Cn1ccc(OCCOc2cc3c(CCNC(=O)C(F)F)c[nH]c3cc2F)n1
2: CNC(=O)NCCc1c[nH]c2ccc(OCCc3nc(C)sc3C)cc12
3: CCc1ccn(CCOc2cc3c(CCNC(C)=O)c[nH]c3cc2F)n1
INPUT: Please produce an ascending ranking of these compounds based on EC50. List labels; respect the requested ordering.
OUTPUT: 1, 3, 2
(1: 4.5 nM, 3: 10 nM, 2: 44 nM)

a: CCC(=O)NCCc1c[nH]c2cc(F)c(OCCOc3ccc(OC)nc3)cc12
b: COc1ccc(OCCOc2cc3c([C@@H](C)CNC(C)=O)c[nH]c3cc2F)cn1
c: CCC(=O)NCCc1c(C)[nH]c2ccc(OCCOc3ccn(C)n3)cc12
INPUT: // sort entries: EC50, high to low List labels; respect the requested ordering.
OUTPUT: b, c, a

1: CNC(=O)NCCc1c[nH]c2ccc(OCCOc3cncc(Br)c3)cc12
2: CC(=O)NCCc1c[nH]c2ccc(OCCOc3cncc(F)c3)cc12
INPUT: // select label with min value of measured EC50 from [ 1 , 2 ] Could you answer with the label of the item you picked?
OUTPUT: 1
